Test system: gene editing with Cas9
Test: Screen of 322 new SSAP proteins, gene editing activity with Cas9 (Table 5)
Type: cell-based
Conditions: normalized
From the text: 322 new SSAP proteins were identified from sequence data, synthesized, and screened for activity with Cas9 and dCas9. Gene editing activities are shown below in Table 5, followed by amino acid sequences of the proteins.
measured.attribute: Cas9 with SSAP activity (normalized)
One number for each entry.

{"molecule": "SSAP_140: SEQ ID NO: 309; Staphylococcus equorum (protein, listed as Staphylococcus equorum) ATNETLKQKVVERKPNGVKEQSPKTQLNHLLKKMAPEIQRALPKHMDSDRMARIAMTAVSNTPKLLECDQMSFIAALMQASQLGVEPNTGLGQAYLIPYAGKVQFQLSYKGLIDLATRSGQYKSIYAHEVYTNDEFEYRYGLFKDLIHIPSQEPEGNPIGYYAVYHLKNGGYDFVYWTRERVDKHAKEFSQAVQKGWTSPWITNYDAMAKKTVLKEVLKYAPKSIEMNKAVENDSTIKEEIDKDMSTVIDVTDYSEVEEQESLETGGQTSK", "Cas9 with SSAP activity (normalized)": "−0.848"}

With those in mind, consider the next molecule.
Exam item: What measured Cas9 with SSAP activity (normalized) goes with SSAP_32: SEQ ID NO: 201 (protein) EFETDEEEKEMSNNQLSTQQAKRDIAIDTSVWTFQDVKRYFDPQNLLTEKQVGQALSLIKGRNLNPLANEVYIVAYKKKTGGTEFSLIVSKEAFLKRAAQNPNYEGFEAGVVTVDTDGVMHERKGALMLPGDTLVGGWARVYRKNFKVPVEIFVSREEYDKKQSTWNAMPATMIRKTALVNALREAFPEDLGNMYTEDDGGETFDRIKQAEPVESREDVMARKMAQIEQMKQEQAQRQIDTSYPTDDVIDPDDEPAQGELLEDLEY ?
Marked response: −1.203
